Overview of reported solubility across a group of molecules:
Test: Solubility in simulated intestinal fluid at pH 7.6 by HPLC method
Type: physicochemical
PROPERTY: solubility (µM)

| SMILES_STRING | PROPERTY | REPORTED_MEASUREMENT |
| --- | --- | --- |
| O=C1c2cc(OC(F)(F)F)ccc2-n2c1nc1ccccc1c2=O | solubility | 31.3 |
| O=C1c2cc(F)ccc2-n2c1nc1ccccc1c2=O | solubility | 18.8 |
| O=C1c2cc(Cl)ccc2-n2c1nc1ccccc1c2=O | solubility | 16.7 |
| O=C1c2ccccc2-n2c1nc1c(c2=O)CCCC1 | solubility | 73.4 |

---

Each item that follows carries a reported IC50.
Test system: Vero
Assay: Cytotoxicity against african green monkey Vero cells
Assay type: cell-based, Chlorocebus sabaeus
Conditions: Chlorocebus sabaeus, Vero; read-out: IC50
PROPERTY: IC50

| SMILES_STRING | SYSTEM_NAME | PROPERTY | REPORTED_MEASUREMENT |
| --- | --- | --- | --- |
| O=C1c2cc(F)ccc2-n2c1nc1ccccc1c2=O | Vero | IC50 | > 50 µg/mL |
| O=C1c2cc(Cl)ccc2-n2c1nc1ncccc1c2=O | Vero | IC50 | 5.4 µg/mL |
| O=C1c2ccc(N3CCNCC3)cc2-n2c1nc1ccncc1c2=O | Vero | IC50 | 11 µg/mL |
| O=C1c2ccc(Cl)cc2-n2c1nc1ncccc1c2=O | Vero | IC50 | 7 µg/mL |
| CCOC(=O)c1ccc2c(c1)C(=O)c1nc3ccccc3c(=O)n1-2 | Vero | IC50 | > 16 µg/mL |
| CS(=O)(=O)Nc1ccc2c(c1)C(=O)c1nc3ccccc3c(=O)n1-2 | Vero | IC50 | > 8 µg/mL |
| O=C1c2ccc(Cl)cc2-n2c1nc1ccccc1c2=O | Vero | IC50 | > 50 µg/mL |
| O=C1c2ccccc2-n2c1nc1ccccc1c2=O | Vero | IC50 | > 8 µg/mL |
| O=C1C2=Nc3ncccc3CN2c2ccc(Cl)cc21 | Vero | IC50 | > 10 µg/mL |
| CC(C)(C)OC(=O)N1CCN(c2ccc3c(c2)-n2c(nc4ccncc4c2=O)C3=O)CC1 | Vero | IC50 | 24 µg/mL |
| O=C1c2ccc(N3CCNCC3)cc2-n2c1nc1ccccc1c2=O | Vero | IC50 | > 2 µg/mL |
| O=C1c2cc(C(=O)N3CCCCC3)ccc2-n2c1nc1ccccc1c2=O | Vero | IC50 | > 10 µg/mL |

---

Listed next: entries and their corresponding Papp A→B at 1 h.
Test: Permeability across apical to basolateral side in human Caco2 cells incubated for 1 hr at 37 degC by HPLC-MS/MS method
Format: ADME, cell-based
Conditions: Caco-2

| SMILES_STRING | Papp A→B at 1 h (×10⁻⁶ cm/s) |
| --- | --- |
| O=C1c2cc(C(=O)N3CCCCC3)ccc2-n2c1nc1ccccc1c2=O | 59.9 |
| O=C1c2cc(Cl)ccc2-n2c1nc1cc(F)ccc1c2=O | 28.5 |
| O=C1c2cc(Br)ccc2-n2c1nc1ccccc1c2=O | 23.8 |

---

Test system: Mycobacterium tuberculosis
Experiment: Antitubercular activity against Mycobacterium tuberculosis H37Rv incubated at 37 degC for 14 days in presence of 40% human serum by microplate alamar blue assay
Type: functional
Details: 336 h

| SMILES_STRING | UNIT_ABBREV | QUALIFIER_SYMBOL | MIC |
| --- | --- | --- | --- |
| O=C1c2ccc(N3CCNCC3)cc2-n2c1nc1ccncc1c2=O | µg/mL | > | 4 |
| CS(=O)(=O)Nc1ccc2c(c1)C(=O)c1nc3ccccc3c(=O)n1-2 | µg/mL | > | 8 |
| O=C1c2cc(OC(F)(F)F)ccc2-n2c1nc1ncccc1c2=O | µg/mL | = | 0.5 |
| Nc1ccc2c(c1)C(=O)c1nc3ccccc3c(=O)n1-2 | µg/mL | = | 16 |
| CCOC(=O)c1ccc2c(c1)C(=O)c1nc3ccccc3c(=O)n1-2 | µg/mL | = | 1 |
| O=C1c2ccc(N3CCCCC3)cc2-n2c1nc1ccccc1c2=O | µg/mL | > | 128 |
| COc1ccc2c(c1)C(=O)c1nc3ccccc3c(=O)n1-2 | µg/mL | = | 2 |
| O=C1c2cc(F)ccc2-n2c1nc1ccccc1c2=O | µg/mL | = | 0.5 |
| O=C1c2cc(F)ccc2-n2c1nc1ncccc1c2=O | µg/mL | = | 2 |
| O=C1c2ccc(N3CCNCC3)cc2-n2c1nc1ccccc1c2=O | µg/mL | > | 2 |

---

Test system: Vero
Experiment: Cytotoxicity against african green monkey Vero cells
Assay type: cell-based, Chlorocebus sabaeus
Settings: Chlorocebus sabaeus, Vero; read-out: IC50
Under this convention, label 1 denotes IC50 strictly below 30 µg/mL and label 0 denotes IC50 at or above 30 µg/mL.

| SMILES_STRING | CAT |
| --- | --- |
| COc1ccc2c(c1)C(=O)c1nc3ccccc3c(=O)n1-2 | label 1 |
| O=C1c2ccc(N3CCC(O)CC3)cc2-n2c1nc1ccccc1c2=O | label 0 |
| O=C1c2ccc(N3CCCCC3)cc2-n2c1nc1ccncc1c2=O | label 1 |
| O=C1c2ccccc2-n2c1nc1ccc(Br)cc1c2=O | label 0 |
| Cl.O=C1c2ccc(N3CCNCC3)cc2-n2c1nc1ccccc1c2=O | label 1 |
| O=C1C2=Nc3ccccc3CN2c2ccc(Cl)cc21 | label 0 |
| O=C1c2cc(Cl)ccc2-n2c1nc1ccccc1c2=O | label 0 |
| O=C1c2cc(OC(F)(F)F)ccc2-n2c1nc1ccccc1c2=O | label 0 |

---

Tested on: Mycobacterium tuberculosis
Experiment: Antitubercular activity against Mycobacterium tuberculosis H37Rv incubated at 37 degC for 14 days in presence of 40% human serum by microplate alamar blue assay
Format: functional
Settings: 336 h
Recorded measurements of MIC, one per entry
PROPERTY: MIC (µg/mL)

| SMILES_STRING | UNIT_ABBREV | REPORTED_MEASUREMENT |
| --- | --- | --- |
| O=C1c2cc(Cl)ccc2-n2c1nc1ccccc1c2=O | µg/mL | 0.25 |
| O=C1c2cc(OC(F)(F)F)ccc2-n2c1nc1ccccc1c2=O | µg/mL | 0.5 |
| O=C1c2ccc(Cl)cc2-n2c1nc1ncccc1c2=O | µg/mL | 2 |

---

Let's look at some compounds and their measured IC50.
System: Vero
Assay: Cytotoxicity against african green monkey Vero cells
Format: cell-based, Chlorocebus sabaeus
Details: Chlorocebus sabaeus, Vero; read-out: IC50

| SMILES_STRING | IC50 |
| --- | --- |
| O=C1c2cc(Br)ccc2-n2c1nc1ccncc1c2=O | > 50 µg/mL |
| O=C1c2cc(Cl)ccc2-n2c1nc1cc(F)ccc1c2=O | > 50 µg/mL |
| O=C1c2cc(Br)ccc2-n2c1nc1ncccc1c2=O | > 20 µg/mL |
